Test system: Chordin-like protein 2 (CHRDL2)
assay_info: CHRDL2 small-molecule binders, primary screen, biochemical, small-molecule microarray, 635 nm fluorescence (AID 1126);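 further: printed compound slides probed with Chrdl2 protein at 4 µg/mL for 1 h at 4 C; score merges 667 nm emission intensity with signal to noise over three replicate slides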
condition_set: small-molecule microarray binding, fluorescence 635 nm; higher = more signal
Can you tell me composite z-score for the items I'm about to list?
Form field (numeric): enter value without unit.

Consider the compound C=CCOC(=O)[C@H]1[C@@H]2C(=O)O[C@@H](c3ccccc3)[C@@H](c3ccccc3)N2[C@@H](c2ccc(OCCOC(=O)[C@@H]3C[C@@H]4C(=O)N[C@@H](CCCCN(C)C)C(=O)N4[C@@H]3c3ccc(O)cc3)cc2)[C@]12C(=O)Nc1ccccc12 and give its recorded composite z-score. 1.44

Consider the compound COC(=O)[C@@]1(Cc2ccc(F)cc2)[C@H]2c3cc(C(=O)N(C)C)n(Cc4cc(F)cc5c4OCOC5)c3C[C@H]2CN1C(=O)c1ccccc1 and give its recorded composite z-score. -0.535

Consider the compound CCOC(=O)C[C@H]1[C@H](OC(=O)c2cc3ccccc3oc2=O)[C@@H](NC(=O)c2ccc(-c3ccccc3)cc2)c2cc(OCCCO)ccc2N1C(=O)c1ccccc1 and give its recorded composite z-score. 0.475

---

measurement_target: Torsin-1A-interacting protein 2 (Homo sapiens) (UniProt Q8NFQ8)
Sequence (Q8NFQ8 whole entry, looked up): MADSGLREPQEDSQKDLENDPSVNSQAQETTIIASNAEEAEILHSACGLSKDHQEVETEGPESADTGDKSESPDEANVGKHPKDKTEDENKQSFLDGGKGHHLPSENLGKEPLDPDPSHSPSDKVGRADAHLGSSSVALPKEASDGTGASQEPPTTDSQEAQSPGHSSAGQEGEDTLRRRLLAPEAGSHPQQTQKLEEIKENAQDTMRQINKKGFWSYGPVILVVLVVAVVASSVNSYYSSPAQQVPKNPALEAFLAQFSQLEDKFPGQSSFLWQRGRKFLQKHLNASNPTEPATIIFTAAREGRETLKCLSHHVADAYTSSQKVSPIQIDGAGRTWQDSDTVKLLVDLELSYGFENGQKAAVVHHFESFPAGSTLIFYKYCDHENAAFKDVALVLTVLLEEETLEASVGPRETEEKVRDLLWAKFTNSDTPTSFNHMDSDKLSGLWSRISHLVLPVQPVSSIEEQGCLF
assay_info: LULL1 binders on small-molecule microarray, primary screen, cell lysate, human LULL1 lysate, 635/667 nm fluorescence (AID 1092);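 further: probe is lysate of COS7 cells overexpressing human LULL1; score merges per-feature 667 nm fluorescence with signal-to-noise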
condition_set: hLULL1 lysate binding, 635 nm fluorescence, higher = more signal
Can you tell me composite z-score for the items I'm about to list?

Consider the compound COCCOC(=O)N1C(=O)[C@@]2(c3cc(C#CCNC(N)=O)ccc31)[C@H](C(=O)N1CCc3cc(OC)c(OC)cc3C1)[C@H]1C(=O)O[C@H](c3ccccc3)[C@H](c3ccccc3)N1[C@@H]2c1ccccc1OCCO and give its recorded composite z-score. 2.14

Consider the compound OCC1CC(c2ccccc2)=NO1 (stereo unspecified) and give its recorded composite z-score. -1.3

Consider the compound CCCCCCCCCCC(O)C1C=CC2C(=O)N(C)C(=O)C2N1NC(=O)OC(C)(C)C (stereo unspecified) and give its recorded composite z-score. 2.18

Consider the compound CN1C(=O)C2C=CC(C(O)c3cccc4ccccc34)N(N3CCCCC3)C2C1=O (stereo unspecified) and give its recorded composite z-score. 2.86

Consider the compound CC=CC(O)C1C=CC2C(=O)N(c3ccccc3)C(=O)C2N1Nc1ccccc1F (stereo unspecified) and give its recorded composite z-score. 3.08

Consider the compound [N-]=[N+]=NCc1ccccc1[C@@H]1OC(c2ccc(OCCCO)cc2)=N[C@]1(CCS(=O)(=O)c1ccccc1)C(=O)NCC(O)CO (stereo partly specified) and give its recorded composite z-score. 3.85

Consider the compound COc1cc2c(cc1OC)CN(C(=O)[C@@H]1[C@H]3C(=O)O[C@H](c4ccccc4)[C@H](c4ccccc4)N3[C@H](c3ccc(OCCO)cc3)[C@@]13C(=O)Nc1ccccc13)CC2 and give its recorded composite z-score. 3

Consider the compound COC(=O)C1=CC(CCCO)=CC(C2CC2)N(C)C=C1C(=O)OC (stereo unspecified) and give its recorded composite z-score. 2.79

Consider the compound Cc1cc(C)c(C(O)C2C=CC3C(=O)NC(=O)C3N2Nc2ccc(Cl)cc2Cl)c(C)c1 (stereo unspecified) and give its recorded composite z-score. 3.42

Consider the compound C=CCC(OC(C)=O)[C@@H]1[C@@H](N(Cc2cc3ccccc3o2)C(=O)c2ccc(-c3ccccc3)cc2)c2cc(OCCCO)ccc2N1C(=O)c1ccc2ccccc2c1 (stereo partly specified) and give its recorded composite z-score. 1.1

Consider the compound COC(=O)c1c2oc(c1C(=O)OC)C(=O)N(C)Cc1cn(nn1)C[C@H](Cc1ccccc1)NC(=O)N[C@H](CO)CC2 and give its recorded composite z-score. -0.609

Consider the compound C=CCC(OC(C)=O)[C@@H]1[C@@H](N(Cc2cccc3ccccc23)C(=O)Cc2ccc(F)cc2)c2cc(OCCCO)ccc2N1C(=O)c1ccc2ccccc2n1 (stereo partly specified) and give its recorded composite z-score. 0.511

Consider the compound CC(C)OC(=O)C=C1C[C@@H](c2ccc(C(F)(F)F)cc2)O[C@@H](c2ccc(C(F)(F)F)cc2)O1 and give its recorded composite z-score. 2.66

Consider the compound CN(C)CCCNC(=O)[C@@]1(c2ccc([N+](=O)[O-])cc2)CC(=O)N(CC23CC4CC(CC(C4)C2)C3)[C@@H]1c1ccc(CO)cc1I and give its recorded composite z-score. 2.35

Consider the compound [N-]=[N+]=Nc1ccccc1[C@@H]1OC(c2ccc(OCCCO)cc2)=N[C@]1(Cc1ccccc1)C(=O)NCC(O)CO (stereo partly specified) and give its recorded composite z-score. 2.65

Consider the compound O=C1C2C=CC(C(O)c3ccccc3)N(Nc3ccccc3F)C2C(=O)N1c1ccccc1 (stereo unspecified) and give its recorded composite z-score. 2.61

# credit: PubChem BioAssay
